ASSAYED TARGET: LK35.2-hPD-L1 cells / PE-labeled PD-1-Ig (Homo sapiens)
Construct: expressed in transfected cells; host or cells: LK35.2 mouse B cell line
Sequence (Q9NZQ7 19-290): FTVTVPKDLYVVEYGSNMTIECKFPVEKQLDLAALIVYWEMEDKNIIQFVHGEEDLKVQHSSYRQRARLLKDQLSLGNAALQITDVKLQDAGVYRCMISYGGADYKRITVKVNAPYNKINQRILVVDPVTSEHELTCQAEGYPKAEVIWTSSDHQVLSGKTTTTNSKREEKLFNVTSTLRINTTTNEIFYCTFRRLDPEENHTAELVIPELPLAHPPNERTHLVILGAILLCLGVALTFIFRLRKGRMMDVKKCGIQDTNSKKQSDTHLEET
ASSAY TEXT: LK35.2-hPD-L1 cell binding high-content screening assay
Format: cell-based
STATED CONDITIONS: cell binding assay, cell line not given; cluster symbol; read-out: CBA IC50 cluster
Positions of bridges follow the written chain, without caps; N, C: chain ends. Non-standard residues stand in square brackets, D forms with d. Residues, ends and D or L forms follow the SMILES beside them. ξ: configuration not given here. Bta = N[C@@H](Cc1csc2ccccc12)C(=O)O; Hyp = O=C(O)[C@@H]1C[C@@H](O)CN1; NMeNle = CCCC[C@H](NC)C(=O)O; NMeM = CN[C@@H](CCSC)C(=O)O; NMeA = CN[C@@H](C)C(=O)O; Dab = NCC[C@H](N)C(=O)O; Dap = NC[C@H](N)C(=O)O; ξC = NC(CS)C(=O)O
Entries and their IC50

CCCC[C@H]1C(=O)N[C@@H](CCCNC(=N)N)C(=O)NC(C(=O)NCC(N)=O)CSCC(=O)N[C@@H](Cc2ccc(O)cc2)C(=O)N(C)[C@@H](C)C(=O)N[C@@H](CC(N)=O)C(=O)N2CCC[C@H]2C(=O)N[C@@H](Cc2cnc[nH]2)C(=O)N[C@@H](CO)C(=O)N2CCC[C@H]2C(=O)N[C@@H](Cc2c[nH]c3ccccc23)C(=O)N[C@@H](CO)C(=O)N[C@@H](Cc2csc3ccccc23)C(=O)N(C)[C@@H](CCSC)C(=O)N1C (some centres unmarked) [Example 9112] ({CH2CO}-Y[NMeA]NPHSPWS[Bta][NMeM][NMeNle]R[ξC]G-NH2; thioether N-14) : 4.78 to 72.9 nM

Problem: For the compound shown here, CCCC[C@H]1C(=O)N(C)[C@@H](CCCC)C(=O)N[C@@H](CCN)C(=O)N[C@H](C(=O)NCC(N)=O)CSCC(=O)N[C@@H](Cc2ccc(O)cc2)C(=O)N(C)[C@@H](C)C(=O)N[C@@H](CC(N)=O)C(=O)N2CCC[C@H]2C(=O)N[C@@H](CN)C(=O)N[C@@H](CCC(N)=O)C(=O)N2C[C@H](O)C[C@H]2C(=O)N[C@@H](Cc2c[nH]c3ccccc23)C(=O)N[C@@H](CO)C(=O)N[C@@H](Cc2c[nH]c3ccccc23)C(=O)N1C [Example 5042] ({CH2CO}-Y[NMeA]NP[Dap]Q[Hyp]WSW[NMeNle][NMeNle][Dab]CG-NH2; thioether N-14) , give the reported IC50.
Result: 0.158 to 4.71 nM

###

Entries and their pIC50
ASSAYED TARGET: LK35.2-hPD-L1 cells / PE-labeled PD-1-Ig (Homo sapiens)
Construct: expressed in transfected cells; host or cells: LK35.2 mouse B cell line
ASSAY TEXT: LK35.2-hPD-L1 cell binding high-content screening assay
Type: cell-based
STATED CONDITIONS: cell binding assay, cell line not given; cluster symbol; read-out: CBA IC50 cluster
pIC50: −log10 of the molar value. Positions of bridges follow the written chain, without caps; N, C: chain ends. Non-standard residues stand in square brackets, D forms with d. Residues, ends and D or L forms follow the SMILES beside them. ξ: configuration not given here. Bta = N[C@@H](Cc1csc2ccccc12)C(=O)O; NMeF = CN[C@@H](Cc1ccccc1)C(=O)O; dHyp = O=C(O)[C@H]1C[C@H](O)CN1; NMeNle = CCCC[C@H](NC)C(=O)O; NMeM = CN[C@@H](CCSC)C(=O)O; NMeA = CN[C@@H](C)C(=O)O; Dab = NCC[C@H](N)C(=O)O; ξC = NC(CS)C(=O)O; Sar = CNCC(=O)O

Problem: For the compound shown here, CCCC[C@H]1C(=O)N(C)[C@@H](CCCC)C(=O)N[C@@H](CCCNC(=N)N)C(=O)N[C@H](C(=O)NCC(N)=O)CSCC(=O)N[C@@H](Cc2ccccc2)C(=O)N(C)[C@@H](C)C(=O)N[C@@H](CC(N)=O)C(=O)N2CCC[C@H]2C(=O)N[C@@H](Cc2cnc[nH]2)C(=O)N[C@@H](CC(C)C)C(=O)N(C)CC(=O)N[C@@H](Cc2c[nH]c3ccccc23)C(=O)N[C@@H](CCN)C(=O)N[C@@H](Cc2c[nH]c3ccccc23)C(=O)N1C [Example 5001] ({CH2CO}-F[NMeA]NPHL[Sar]W[Dab]W[NMeNle][NMeNle]RCG-NH2; thioether N-14) , give the reported pIC50.
Result: 7.14 to 8.32

Problem: For the compound shown here, CCCC[C@H]1C(=O)N2C[C@@H](O)C[C@@H]2C(=O)N[C@@H](CC(=O)O)C(=O)N[C@@H](C(C)C)C(=O)N(C)[C@@H](Cc2ccccc2)C(=O)N[C@@H](Cc2ccc(O)cc2)C(=O)N(C)CC(=O)N[C@@H](Cc2c[nH]c3ccccc23)C(=O)N[C@@H](Cc2ccc(O)cc2)C(=O)N[C@@H](CC(C)C)C(=O)N[C@H](C(=O)NCC(N)=O)CSCC(=O)N[C@@H](Cc2ccccc2)C(=O)N(C)[C@@H](Cc2ccccc2)C(=O)N1C [Example 3588] ({CH2CO}-F[NMeF][NMeNle][dHyp]DV[NMeF]Y[Sar]WYLCG-NH2; thioether N-13) , give the reported pIC50.
Result: 8.33 to 9.80

Problem: For the compound shown here, CCCC[C@H]1C(=O)N(C)[C@@H](CCSC)C(=O)N[C@@H](CCCNC(=N)N)C(=O)NC(C(=O)NCC(N)=O)CSCC(=O)N[C@@H](Cc2ccc(O)cc2)C(=O)N(C)[C@@H](C)C(=O)N[C@@H](CC(N)=O)C(=O)N2CCC[C@H]2C(=O)N[C@@H](Cc2cnc[nH]2)C(=O)N[C@@H](CC(C)C)C(=O)N2CCC[C@H]2C(=O)N[C@@H](Cc2c[nH]c3ccccc23)C(=O)N[C@@H](CO)C(=O)N[C@@H](Cc2csc3ccccc23)C(=O)N1C (stereo partly shown) [Example 9022] ({CH2CO}-Y[NMeA]NPHLPWS[Bta][NMeNle][NMeM]R[ξC]G-NH2; thioether N-14) , give the reported pIC50.
Result: 8.33 to 9.80

Problem: For the compound shown here, CCCC[C@H]1C(=O)N(C)[C@@H](CCCC)C(=O)N[C@@H](CCCNC(=N)N)C(=O)NC(C(=O)NCC(N)=O)CSCC(=O)N[C@@H](Cc2ccc(O)cc2)C(=O)N(C)[C@@H](C)C(=O)N[C@@H](CC(N)=O)C(=O)N2CCC[C@H]2C(=O)N[C@@H](Cc2cnc[nH]2)C(=O)N[C@@H](CC(N)=O)C(=O)N2CCC[C@H]2C(=O)N[C@@H](Cc2c[nH]c3ccccc23)C(=O)N[C@@H](CO)C(=O)N[C@@H](Cc2csc3ccccc23)C(=O)N1C (stereo partly shown) [Example 9064] ({CH2CO}-Y[NMeA]NPHNPWS[Bta][NMeNle][NMeNle]R[ξC]G-NH2; thioether N-14) , give the reported pIC50.
Result: 8.33 to 9.80

###

Entries and their IC50
ASSAYED TARGET: LK35.2-hPD-L1 cells / PE-labeled PD-1-Ig (Homo sapiens)
Construct: expressed in transfected cells; host or cells: LK35.2 mouse B cell line
ASSAY TEXT: LK35.2-hPD-L1 cell binding high-content screening assay
Format: cell-based
STATED CONDITIONS: cell binding assay, cell line not given; cluster symbol; read-out: CBA IC50 cluster
Positions of bridges follow the written chain, without caps; N, C: chain ends. Non-standard residues stand in square brackets, D forms with d. Residues, ends and D or L forms follow the SMILES beside them. ξ: configuration not given here. Phe(3,4-(OMe)2) = COc1ccc(C[C@H](N)C(=O)O)cc1OC; Bta = N[C@@H](Cc1csc2ccccc12)C(=O)O; Hyp = O=C(O)[C@@H]1C[C@@H](O)CN1; NMeF = CN[C@@H](Cc1ccccc1)C(=O)O; NMeNle = CCCC[C@H](NC)C(=O)O; NMeA = CN[C@@H](C)C(=O)O; ξC = NC(CS)C(=O)O; Sar = CNCC(=O)O

# count of solved cases: 3
CCCC[C@H]1C(=O)N(C)CC(=O)N[C@@H](CC(=O)O)C(=O)N[C@@H](C(C)C)C(=O)N(C)[C@@H](Cc2ccccc2)C(=O)N[C@@H](Cc2ccc(O)cc2)C(=O)N(C)CC(=O)N[C@@H](Cc2c[nH]c3ccccc23)C(=O)N[C@@H](Cc2ccc(OC)c(OC)c2)C(=O)N[C@@H](CC(C)C)C(=O)N[C@H](C(=O)NCC(N)=O)CSCC(=O)N[C@@H](Cc2ccccc2)C(=O)N(C)[C@@H](Cc2ccccc2)C(=O)N1C [Example 3541] ({CH2CO}-F[NMeF][NMeNle][Sar]DV[NMeF]Y[Sar]W[Phe(3,4-(OMe)2)]LCG-NH2; thioether N-13) : > 74.3 nM
CCCC[C@H]1C(=O)N(C)[C@@H](CCCC)C(=O)NCC(=O)N[C@H](C(=O)NCC(N)=O)CSCC(=O)N[C@@H](Cc2ccccc2)C(=O)N(C)[C@@H](C)C(=O)N[C@@H](CC(N)=O)C(=O)N2CCC[C@H]2C(=O)N[C@@H](Cc2cnc[nH]2)C(=O)N[C@@H](CC(C)C)C(=O)N(C)CC(=O)N[C@@H](Cc2c[nH]c3ccccc23)C(=O)N[C@@H](CO)C(=O)N[C@@H](Cc2c[nH]c3ccccc23)C(=O)N1C [Example 5015] ({CH2CO}-F[NMeA]NPHL[Sar]WSW[NMeNle][NMeNle]GCG-NH2; thioether N-14) : 4.78 to 72.9 nM
CCCC[C@H]1C(=O)N(C)[C@@H](CCCC)C(=O)N[C@@H](CCCNC(=N)N)C(=O)NC(C(=O)NCC(N)=O)CSCC(=O)N[C@@H](Cc2ccc(O)cc2)C(=O)N(C)[C@@H](C)C(=O)N[C@@H](CC(N)=O)C(=O)N2CCC[C@H]2C(=O)N[C@@H](CC(N)=O)C(=O)N[C@@H](CC(C)C)C(=O)N2C[C@H](O)C[C@H]2C(=O)N[C@@H](Cc2c[nH]c3ccccc23)C(=O)N[C@@H](CO)C(=O)N[C@@H](Cc2csc3ccccc23)C(=O)N1C (stereo partly shown) [Example 9062] ({CH2CO}-Y[NMeA]NPNL[Hyp]WS[Bta][NMeNle][NMeNle]R[ξC]G-NH2; thioether N-14) : 0.158 to 4.71 nM

Moving on to the next molecule.
Problem: Record lookup: for LK35.2-hPD-L1 cells / PE-labeled PD-1-Ig (Homo sapiens), what IC50 belongs to CCCC[C@H]1C(=O)N[C@@H](CCCNC(=N)N)C(=O)NC(C(=O)NCC(N)=O)CSCC(=O)N[C@@H](Cc2ccc(O)cc2)C(=O)N(C)[C@@H](C)C(=O)N[C@@H](CC(N)=O)C(=O)N2CCC[C@H]2C(=O)N[C@@H](Cc2cnc[nH]2)C(=O)N[C@@H](CC(C)C)C(=O)N2C[C@H](O)C[C@H]2C(=O)N[C@@H](Cc2c[nH]c3ccccc23)C(=O)N[C@@H](CO)C(=O)N[C@@H](Cc2csc3ccccc23)C(=O)N(C)[C@@H](C)C(=O)N1C (stereo partly shown) [Example 9056] ({CH2CO}-Y[NMeA]NPHL[Hyp]WS[Bta][NMeA][NMeNle]R[ξC]G-NH2; thioether N-14) ?
Result: 0.158 to 4.71 nM
